# Substrate: PEF
# experimentalDetails: Proxy for plastic degradation [kcat] (s⁻¹)
# studyConditions: pH 9
Reported Proxy for plastic degradation values follow for various proteins

protein	Proxy for plastic degradation
unnamed (protein) MDGVLWRVRTAALMAALLALAAWALWASPSVEAQSNPYQRGPNPTRSALTADGPFSVATYTVSRLSVSGFGGVIYYPTGTSLTFGGIAMSPGYTADASSLAWLGRRLASHGFVVLVINTNSRFDYPDSRASQLSAALNYLRTSSPSAVRARLDANRLAVAGWSMGGGGTLRIAEQNPSLKAAVPLTPWHTDKTFNTSVPVLIVGCEADTVAPVSQHAIPFYQNLPSTTPKVYVELDNASHSCPNSNNAAISVYTISWMKLWVDNDTRYRQFLCNVNDPALSDFRTNNRHCQCQ	0.006
unnamed (protein) MDGVLWRVRTAALMAALLALAAWALWASPSVEAQSNPYQRGPNPTRSALTADGPFSVATYTVSRLSVSGFGGVIYYPTGTSLTFGGIAMSPGYTADASSLAWLGRRLASHGFVVLVINTNSRFDYPDSRASQLSAALNYLRTSSPSAVRARLDANRLAVAGHSMGGGGTLRIAEQNPSLKAAVPLTPWHTDKTFNTSVPVLIVGCEADTVAPVSQHAIPFYQNLPSTTPKVYVELDNASHFCPNSNNAAISVYTISWMKLWVDNDTRYRQFLCNVNDPALSDFRTNNRHCQCQ	0.004
unnamed (protein) MNFPRASRLMQAAVLGGLMAVSAAATAQTNPYARGPNPTAASLEASAGPFTVRSFTVSRPSGYGAGTVYYPTNAGGTVGAIAIVPGYTARQSSIKWWGPRLASHGFVVITIDTNSTLDQPSSRSSQQMAALRQVASLNGTSSSPIYGKVDTARMGVMGWSMGGGGSLISAANNPSLKAAAPQAPWDSSTNFSSVTVPTLIFACENDSIAPVNSSALPIYDSMSRNAKQFLEINGGSHFCANSGNSNQALIGKKGVAWMKRFMDNDTRYSTFACENPNSTRVSDFRTANCS	0.35
